test: acute oral toxicity
conditions: mouse, in vivo, male mice
Description: Further, these compounds have no detrimental effects on test animals administered therewith, so far as the doses thereof are within an ordinary administration range.
recorded.metric: LD50

IN: Requested read-out: LD50. Entry: CC(C)OC(=O)C(C(=O)OC(C)C)=C1SCC(O)S1 (stereo not shown) [Compound 2]
OUT: > 6590 mg/kg

====

Record form. Attribute: Bile flow. Fill in for each entry.
System: bile flow
test: Cholagogic Action: effect on bile flow
Type: in vivo, rats (SD-JCL strain)
conditions: 200 mg/kg oral; 1 hour after treatment; before treatment = 100

# example entries with known answers
CCOC(=O)C(C(=O)OC(C)C)=C1SCC(O)S1 (stereo not shown)	108 ± 2.1
COc1ccc(-c2cc(=S)ss2)cc1 [Anethol trithion, reference compound]	114 ± 15
CC(C)OC(=O)C(C(=O)OC(C)C)=C1SCC(O)S1 (stereo not shown)	112 ± 2.4

Please turn your attention to the following entry.
IN: What value of measured Bile flow is listed for CCOC(=O)C(C(=O)OCC)=C1SCC(O)S1 (stereo not shown) ?
OUT: 110 ± 1.8

====

What p-GPT (plasma glutamic-pyruvic transaminase activity) was measured for each of the following?
Test system: acute liver damage induced by carbon tetrachloride
test: Protective Effect on Acute Liver Damage associated with Centrilobular Necrosis (carbon tetrachloride)
Assay type: in vivo, mice (dd-strain)
conditions: 250 mg/kg oral, 6 h before CCl4; 24 h after CCl4; values over 1,000 regarded as 1,000; average of 5 to 6 mice
One number for each entry, in Karmen units.

Example results:
CCCOC(=O)C(C(=O)OCCC)=C1SCC(OC(C)=O)S1 (stereo not drawn)	102
CC(C)COC(=O)C(C(=O)OCC(C)C)=C1SCC(O)S1 (stereo not drawn)	52
CCOC(=O)C(C(=O)OCC)=C1SCC(OC(C)=O)S1 (stereo not drawn)	106

Could I get p-GPT (plasma glutamic-pyruvic transaminase activity) for every one of these entries?
1. CC(C)OC(=O)C(C(=O)OC(C)C)=C1SCC(O)S1 (stereo not drawn)
2. CCOC(=O)C(C(=O)OC(C)C)=C1SCC(O)S1 (stereo not drawn)
3. CC(=O)OC1CSC(=C(C(=O)OC(C)C)C(=O)OC(C)C)S1 (stereo not drawn)
4. CCOC(=O)C(C(=O)OCC)=C1SCC(OC(=O)CC)S1 (stereo not drawn)
5. COc1ccc(-c2cc(=S)ss2)cc1 [Anethol trithion, reference compound]

OUT:
1: 20; 2: 40; 3: 80; 4: 210; 5: 38

For each of the molecules below, state p-GPT (plasma glutamic-pyruvic transaminase activity).
1. CCC(=O)OC1CSC(=C(C(=O)OC(C)C)C(=O)OC(C)C)S1 (stereo not drawn)
2. NC(=O)CCCCC1CCSS1 (stereo not drawn) [Thioctic acid amide, reference compound]
3. CCOC(=O)C(C(=O)OCC)=C1SCC(O)S1 (stereo not drawn)

OUT:
1. 62
2. 763
3. 66

====

System: fatty liver induced by carbon tetrachloride
test: Therapeutic Effect on Fatty Liver (carbon tetrachloride)
Format: in vivo, rats (SD strain)
conditions: 250 mg/kg oral, 10 days
Method: Methods: […] The treated animals were left for 3 days after the last administration to maximize the manifestation of fatty liver. […] It was orally given everyday for 10 days at the dose of 50 or 250 mg/kg. On the 11th day, the animals were sacrificed. The therapeutic effect was evaluated by determining the content of liquid in the liver (triglyceride and total lipid) and examining the histopathological changes. […]
Please go through the items and note down their Triglyceride.
Answers are plain numbers, in mg/g-liver.

Please state Triglyceride for every molecule in the list that follows.
1. CCOC(=O)C(C(=O)OCC)=C1SCC(O)S1 (stereo not shown) [Compound 1]
2. CSCC[C@H](N)C(=O)O [Methionine, reference compound]
3. CC(C)OC(=O)C(C(=O)OC(C)C)=C1SCC(O)S1 (stereo not shown) [Compound 2]

OUT:
1: 24.9; 2: 42.7; 3: 21.6

IN: Request body: readout Triglyceride, system fatty liver induced by carbon tetrachloride, query CCOC(=O)C(C(=O)OC(C)C)=C1SCC(O)S1 (stereo not shown) [Compound 4] . Return the value.
OUT: 25.3

====

Test system: excretion of biliary salt
test: Cholagogic Action: effect on the excretion of biliary salt
Assay type: in vivo, rats (SD-JCL strain)
conditions: 200 mg/kg oral; 4 hours after treatment; before treatment = 100
recorded.metric: Excretion of biliary salt

Previously resolved entries follow.
CC(C)OC(=O)C(C(=O)OC(C)C)=C1SCC(O)S1 (stereo not shown) [Compound 2]	97 ± 7.2
COc1ccc(-c2cc(=S)ss2)cc1 [Anethol trithion, reference compound]	47 ± 3.0
CCOC(=O)C(C(=O)OCC)=C1SCC(O)S1 (stereo not shown) [Compound 1]	95 ± 7.7

Now take the following compound into account.
IN: Look up Excretion of biliary salt: CCOC(=O)C(C(=O)OC(C)C)=C1SCC(O)S1 (stereo not shown) [Compound 4]
OUT: 90 ± 7.7

====

Test system: bile flow
test: Cholagogic Action: effect on bile flow
Format: in vivo, rats (SD-JCL strain)
conditions: 200 mg/kg oral; 2 hours after treatment; before treatment = 100
Please go through the items and note down their Bile flow.
Answers are plain numbers.

Worked examples follow.
CCOC(=O)C(C(=O)OC(C)C)=C1SCC(O)S1 (stereo not shown) [Compound 4]	120
CCOC(=O)C(C(=O)OCC)=C1SCC(O)S1 (stereo not shown) [Compound 1]	115
CC(C)OC(=O)C(C(=O)OC(C)C)=C1SCC(O)S1 (stereo not shown) [Compound 2]	117

Next up:
IN: Provide value of Bile flow for this record tested with bile flow: COc1ccc(-c2cc(=S)ss2)cc1 [Anethol trithion, reference compound]
OUT: 114

meta.source: patent US4080466A
